assay.explanation: protein stability index of a GFP-peptide fusion (yeast GPS) (PSI 1-4); higher = more stable; sorted into four equal gates, so the index is relative within each strain
applied.conditions: pdr5∆
metric: protein stability index
Form: value (number only, do not type unit).

Name the reported protein stability index value associated with the sequence LFQNVPEQGEEPMKQLN [YAR002W/NUP60]
3.32

Name the reported protein stability index value associated with the sequence IERIGHLLSINYGEKEE [PCI8]
1.33

Name the reported protein stability index value associated with the sequence LLNINGSRKVAGILRGY [SMX2]
1.67

Name the reported protein stability index value associated with the sequence IKNGRIYFTVPNEFEIQ [RGR1]
2.49

Name the reported protein stability index value associated with the sequence QTIEMITQIVEKDFCTS [SRB8]
3.08

Name the reported protein stability index value associated with the sequence DLVLQILEDTATMSVFL [RRI2]
2.36

Name the reported protein stability index value associated with the sequence VTLDFGNIFADLLPNSF [SMC2]
2.86

Name the reported protein stability index value associated with the sequence GIKAKHDKNIQKLLKQL [ISW2]
2.45

Name the reported protein stability index value associated with the sequence RNMIIVPEMIGSVVGIY [RPS15]
1.42

Name the reported protein stability index value associated with the sequence AFHNNLKFLYLLDAYSH [MED1]
1.25

Name the reported protein stability index value associated with the sequence KKIREIYRYDEMSNKVL [BRR2]
3.06

Name the reported protein stability index value associated with the sequence QVPLQQTQAIAQQQQLS [YGR119C/NUP57]
2.41

Name the reported protein stability index value associated with the sequence HKHNIMKNENANPKKLA [CDC53]
2.31

Name the reported protein stability index value associated with the sequence GNVTELYGTAIGARSQG [PRE5]
2.09

Name the reported protein stability index value associated with the sequence HAYRDVLAQYHEAKERI [SNF6]
3.43

Name the reported protein stability index value associated with the sequence ATHLPKDNVEHLVMRAI [RPN9]
3.09

Name the reported protein stability index value associated with the sequence KERLVRDKKEKKQAQKQ [SMB1]
3.21

Name the reported protein stability index value associated with the sequence SLQDNSAAINNEDARAI [RPN4]
3.19

Name the reported protein stability index value associated with the sequence TVMFFYHNKHMMCDFGT [DIB1]
2.51

Name the reported protein stability index value associated with the sequence VSNLMGRNIGHPIIQDK [RPB3]
3.43

Name the reported protein stability index value associated with the sequence CLEDPEKPFNENRFQDT [POP4]
3.02

Name the reported protein stability index value associated with the sequence KNFIESESVGAFLSFLA [YJL039C/NUP192]
2.25

Name the reported protein stability index value associated with the sequence IGDDGYDLLISTLTTIS [SRB5]
2.1
